I'd be grateful if you could share measured IC50 for these entries.
Target: Intercellular adhesion molecule (ICAM-1), Integrin alpha-L/beta-2 (Homo sapiens, UniProt P05107+P20701)
Sequence (P20701 whole entry): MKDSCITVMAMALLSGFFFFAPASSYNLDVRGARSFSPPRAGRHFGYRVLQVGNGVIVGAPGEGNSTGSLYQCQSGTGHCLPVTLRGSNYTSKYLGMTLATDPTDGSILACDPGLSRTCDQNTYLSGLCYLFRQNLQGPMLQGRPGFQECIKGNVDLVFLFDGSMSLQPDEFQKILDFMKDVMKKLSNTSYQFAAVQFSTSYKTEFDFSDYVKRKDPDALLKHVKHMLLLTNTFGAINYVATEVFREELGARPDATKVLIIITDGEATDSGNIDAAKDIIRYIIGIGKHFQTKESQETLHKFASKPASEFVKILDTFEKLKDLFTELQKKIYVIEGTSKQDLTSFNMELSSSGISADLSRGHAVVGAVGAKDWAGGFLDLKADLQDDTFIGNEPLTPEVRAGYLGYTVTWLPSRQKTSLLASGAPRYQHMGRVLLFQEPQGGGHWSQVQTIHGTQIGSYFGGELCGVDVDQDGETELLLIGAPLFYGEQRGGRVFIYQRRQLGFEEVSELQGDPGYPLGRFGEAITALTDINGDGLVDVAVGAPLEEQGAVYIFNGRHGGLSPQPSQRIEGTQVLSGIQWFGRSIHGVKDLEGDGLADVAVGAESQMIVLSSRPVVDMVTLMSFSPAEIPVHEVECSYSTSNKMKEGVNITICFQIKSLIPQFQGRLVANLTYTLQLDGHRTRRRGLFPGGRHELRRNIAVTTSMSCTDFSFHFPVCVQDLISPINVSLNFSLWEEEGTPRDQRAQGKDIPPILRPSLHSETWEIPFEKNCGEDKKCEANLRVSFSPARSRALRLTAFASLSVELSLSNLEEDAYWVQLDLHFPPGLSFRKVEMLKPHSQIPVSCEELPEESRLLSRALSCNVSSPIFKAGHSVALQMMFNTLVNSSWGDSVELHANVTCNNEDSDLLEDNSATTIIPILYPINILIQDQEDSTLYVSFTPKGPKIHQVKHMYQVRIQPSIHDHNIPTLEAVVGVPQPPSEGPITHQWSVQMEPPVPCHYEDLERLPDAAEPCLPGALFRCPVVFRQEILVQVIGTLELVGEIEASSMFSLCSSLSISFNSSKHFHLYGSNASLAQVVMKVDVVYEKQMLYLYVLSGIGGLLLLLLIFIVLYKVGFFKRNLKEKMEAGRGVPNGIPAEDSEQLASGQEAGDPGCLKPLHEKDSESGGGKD
Sequence (P05362 whole entry, further chain): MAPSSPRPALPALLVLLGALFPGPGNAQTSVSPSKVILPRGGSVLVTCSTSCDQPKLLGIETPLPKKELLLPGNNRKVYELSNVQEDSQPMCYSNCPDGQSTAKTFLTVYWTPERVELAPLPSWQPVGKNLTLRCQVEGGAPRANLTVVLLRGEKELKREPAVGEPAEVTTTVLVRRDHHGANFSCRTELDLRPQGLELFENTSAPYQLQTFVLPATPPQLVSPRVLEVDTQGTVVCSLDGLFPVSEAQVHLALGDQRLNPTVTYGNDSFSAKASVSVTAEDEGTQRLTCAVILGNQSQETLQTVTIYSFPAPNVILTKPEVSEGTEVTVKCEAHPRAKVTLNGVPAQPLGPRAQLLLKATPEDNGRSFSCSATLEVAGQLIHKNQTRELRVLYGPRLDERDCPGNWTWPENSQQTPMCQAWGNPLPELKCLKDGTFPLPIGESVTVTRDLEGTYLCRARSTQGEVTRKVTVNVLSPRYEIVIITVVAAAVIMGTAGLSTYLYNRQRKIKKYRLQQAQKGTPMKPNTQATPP
Sequence (P05107 whole entry): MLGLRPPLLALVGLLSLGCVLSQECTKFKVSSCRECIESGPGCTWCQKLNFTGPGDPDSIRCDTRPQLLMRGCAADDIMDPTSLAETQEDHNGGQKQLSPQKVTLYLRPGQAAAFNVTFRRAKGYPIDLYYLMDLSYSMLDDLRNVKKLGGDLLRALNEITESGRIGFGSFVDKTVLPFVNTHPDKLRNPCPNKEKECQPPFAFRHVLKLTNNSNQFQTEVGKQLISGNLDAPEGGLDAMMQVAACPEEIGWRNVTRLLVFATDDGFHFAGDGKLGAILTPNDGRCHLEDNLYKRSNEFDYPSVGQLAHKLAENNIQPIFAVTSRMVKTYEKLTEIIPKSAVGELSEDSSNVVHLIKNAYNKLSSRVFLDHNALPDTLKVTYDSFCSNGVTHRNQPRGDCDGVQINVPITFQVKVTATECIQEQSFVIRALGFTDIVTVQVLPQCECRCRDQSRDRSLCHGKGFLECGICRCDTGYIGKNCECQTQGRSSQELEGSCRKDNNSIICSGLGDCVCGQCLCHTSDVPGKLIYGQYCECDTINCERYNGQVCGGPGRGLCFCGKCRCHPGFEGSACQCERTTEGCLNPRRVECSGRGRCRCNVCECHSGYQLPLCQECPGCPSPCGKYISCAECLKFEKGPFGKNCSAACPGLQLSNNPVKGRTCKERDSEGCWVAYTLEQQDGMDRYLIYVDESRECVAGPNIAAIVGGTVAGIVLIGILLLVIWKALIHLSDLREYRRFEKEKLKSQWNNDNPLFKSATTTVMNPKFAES
Experiment: Inhibition of HUT78 cell adhesion to immobilized ICAM-1 protein
Format: functional, cell-based

>  <Line notation>
CC[C@H](C)C(=O)O[C@H]1C[C@@H](C)C=C2C=C[C@H](C)[C@H](CC[C@@H]3C[C@H](CC(=O)OC)N(Cc4ccc(C(=O)NC)cc4)C(=O)O3)[C@H]21

>  <Value observed>
> 30 µM

$$$$
>  <Line notation>
CC[C@H](C)C(=O)O[C@H]1C[C@@H](C)C=C2C=C[C@H](C)[C@H](CC[C@@H]3C[C@H](CC(=O)OC)N(Cc4ccc5c(c4)OC(F)(F)O5)C(=O)O3)[C@H]21

>  <Value observed>
> 30 µM

$$$$
>  <Line notation>
CC[C@H](C)C(=O)O[C@H]1C[C@@H](C)C=C2C=C[C@H](C)[C@H](CC[C@@H]3C[C@H](CC(=O)NC)N(Cc4ccc(C(=O)NC)cc4)C(=O)O3)[C@H]21

>  <Value observed>
> 30 µM

$$$$
>  <Line notation>
CC[C@H](C)C(=O)O[C@H]1C[C@@H](C)C=C2C=C[C@H](C)[C@H](CC[C@@H]3C[C@H](CC(=O)NC)N(Cc4ccc(C(=O)O)cc4)C(=O)O3)[C@H]21

>  <Value observed>
> 30 µM

$$$$

// next item, IC50 requested
Answer with the recorded IC50 of CC[C@H](C)C(=O)O[C@H]1C[C@@H](C)C=C2C=C[C@H](C)[C@H](CC[C@@H]3C[C@H](CC(=O)NC)N(Cc4ccc5c(c4)OCO5)C(=O)O3)[C@H]21 only.
6.42 µM
